meta.source: PubChem BioAssay (NCI)

Kindly supply the reported growth values for the records listed here.
Test system: HL-60(TB) leukemia
METHOD_NOTES: NCI-60 one-dose screen, 48 h (100 = growth as untreated, 0 = no growth, -100 = all killed)
CONDITION_INFO: 10 µM unless noted
The panel holds about 83,000 compounds, 20% with a hit somewhere; the sample as a whole holds those more often. The source made the active and inactive calls. The calls were made as follows: active = growth percent below 10; inactive = the rest.

Task item: Param readout= growth; system= HL-60(TB) leukemia; entry= N#CC1C(c2ccc(Cl)cc2)=Nc2c(c(-c3ccccc3)nn2-c2ccccc2)C12C(=O)Nc1ccc(Cl)cc12 (configuration not stated) ; returns value.
Reply: -1.59% (active)

Task item: Form entry - test system: HL-60(TB) leukemia; read-out: growth; compound: Cc1ccc2c(c1)C(C)Cc1c(ncnc1-n1cnc3cc(C)ccc31)N2C (configuration not stated)
Reply: -22% (active)

Task item: Form entry - test system: HL-60(TB) leukemia; read-out: growth; compound: O=C(Cc1ccc(F)c(Cl)c1)Nc1cc(C2(C(F)(F)F)CC2)nn1CC1CCCCC1
Reply: 14.8% (inactive)

Task item: State its growth on HL-60(TB) leukemia: COc1cc(/C=C/c2nc(Nc3ccc(S(=O)(=O)Nc4cc(C)on4)cc3)c3ccccc3n2)ccc1O
Reply: 27.4% (inactive)

Task item: Reported growth for HL-60(TB) leukemia, given CC(C)Sc1nc(NNC(N)=S)c(C#N)c(-c2ccc(F)cc2)n1 ?
Reply: 94.9% (inactive)

Task item: Param readout = growth; param system = HL-60(TB) leukemia; param query = CC1OC(n2c3ccccc3c3c4c(c5c6ccccc6[nH]c5c32)C(=O)N(CCN[C@@H]2CCC[C@H]2N)C4=O)CC(O)C1O (some centres not stated) ; response: value
Reply: 29.2% (inactive)

Task item: Provide the documented growth with HL-60(TB) leukemia as the system for COc1cc(C2CC(c3ccc(Nc4nc(Nc5ccc(F)cc5)nc(Nc5ccc(Cl)cc5)n4)cc3)=NN2C(C)=O)cc(OC)c1OC (configuration not stated)
Reply: 35.2% (inactive)

Task item: So what growth did CCN1CCN(C(=O)[C@]23CC[C@@H](C)[C@H](C)[C@@H]2C2=CC[C@@H]4[C@@]5(C)CCC(=O)C(C)(C)[C@@H]5CC[C@@]4(C)[C@]2(C)CC3)CC1 get with HL-60(TB) leukemia?
Reply: -44.6% (active)

Task item: What measured growth is associated with CCCCCCCCCCCC1=NCCCN1CCCC on HL-60(TB) leukemia?
Reply: 104% (inactive)

Task item: Please tell me: growth of c1ccc(-c2nc3nonc3nc2-c2ccccc2)cc1 , system HL-60(TB) leukemia?
Reply: 85.3% (inactive)

Task item: // fetch HL-60(TB) leukemia growth for CCc1ccc(-c2nnc(COc3ccc(-c4nc5ccc(C)cc5[nH]4)cc3OC)o2)cc1
Reply: 6.14% (active)

Task item: growth of CN1CCN(CCCOc2ccc3ncnc(Nc4ccc(OCc5cccc(F)c5)c(Cl)c4)c3c2)CC1 on HL-60(TB) leukemia?
Reply: -42.3% (active)
